Hey, just so you know, these numbers are from ChEMBL document CHEMBL5058577.

tested on: Fibroblast; experiment: Multiplex assay against human fibroblast; assay type: toxicity, cell-based; conditions: 24 h, 10 µM, compound concentration 10 uM, replicate 1
Label key: TRUE means Population Pyknosed Nuclei (%) under 20%; FALSE means Population Pyknosed Nuclei (%) of 20% or more.

Quick check: Population Pyknosed Nuclei (%) of C=CCN1C[C@H](C(=O)N(CCCN(C)C)C(=O)NCC)C[C@@H]2c3cccc4[nH]cc(c34)C[C@H]21 under 20%?
TRUE

Quick check: Population Pyknosed Nuclei (%) of Cc1nn(C)c2nc(NNC(=O)Nc3cc(Cl)nc(Cl)c3)cc(C(C)C)c12 under 20%?
TRUE

====

tested on: U2OS; assay: Multiplex assay against U2OS; format: toxicity, cell-based; conditions: human, 48 h, 10 µM, compound concentration 10 uM, replicate 2
Label key: True means Population Membrane Permeable-Phenotype (%) under 7%; False means Population Membrane Permeable-Phenotype (%) of 7% or more.

Field: example entries. Status: answers known.
- S=C(NCCCc1c[nH]cn1)NCCCN(Cc1ccc(Cl)c(Cl)c1)c1ccc(Br)cn1: False
- CCc1nn2c(C)cc(C)nc2c1Cc1ccc(-c2nnc(C3CCNCC3)o2)cc1: False
- CN(C)C(=O)Cn1cc(-c2ccc(-c3nnc4ccccn34)cc2)cn1: True

Quick check: Population Membrane Permeable-Phenotype (%) of CN1C[C@H](C(=O)N[C@]2(C)O[C@@]3(O)[C@@H]4CCCN4C(=O)[C@H](Cc4ccccc4)N3C2=O)C[C@@H]2c3cccc4[nH]cc(c34)C[C@H]21.CS(=O)(=O)O [DIHYDROERGOTAMINE MESYLATE] under 7%?
True

Quick check: Population Membrane Permeable-Phenotype (%) of COc1c(Nc2ccc(S(C)(=O)=O)nc2C)ncnc1OC1CCN(C(=O)OC(C)C)CC1 under 7%?
True

Quick check: Population Membrane Permeable-Phenotype (%) of Nc1nc(-c2ccco2)c2cnn(Cc3ccccc3F)c2n1 under 7%?
False

Quick check: Population Membrane Permeable-Phenotype (%) of Cc1c(Cc2ccc3ccccc3n2)c2cc(F)ccc2n1CC(=O)O under 7%?
True

====

Quick list: Population Membrane Permeable-Phenotype (%) per entry.
test system: Fibroblast; experiment: Multiplex assay against human fibroblast; type: toxicity, cell-based; details: 48 h, 1 µM, compound concentration 1 uM, replicate 1

* COc1cc2nc(N3CCN(C(=O)c4ccco4)CC3)nc(N)c2cc1OC.Cl [PRAZOSIN HYDROCHLORIDE] | 0%
* N[C@](CC1c2ccccc2Oc2ccccc21)(C(=O)O)[C@H]1C[C@@H]1C(=O)O | 0%
* COc1cc(OC2CCN(C(C)=O)CC2)ccc1C(=O)N1CCC(N2C(=O)OCc3ccccc32)CC1 | 0%

# get_value(readout='Population Membrane Permeable-Phenotype (%)', item= COCCn1c(C)c(C)s/c1=N\C(=O)C1C(C)(C)C1(C)C )
0%

# get_value(readout='Population Membrane Permeable-Phenotype (%)', item= Cc1sc2c(c1C)C(c1ccc(Cl)cc1)=N[C@H](CC(=O)OC(C)(C)C)c1nnc(C)n1-2 )
0%

# get_value(readout='Population Membrane Permeable-Phenotype (%)', item= COC(c1ccccc1)(c1ccccc1)[C@H](Oc1nc(C)cc(C)n1)C(=O)O [AMBRISENTAN] )
1%

====

Quick list: Total Cell Count per entry.
test system: Fibroblast; experiment: Multiplex assay against human fibroblast; format: toxicity, cell-based; settings: 48 h, 1 µM, compound concentration 1 uM, replicate 2
Keep the answer to the number alone.

Consider the reported Total Cell Count for these compounds:
• OCCCNc1cc(-c2ccnc(Nc3cccc(Cl)c3)n2)ccn1 = 132
• O=C(NCCNCC(O)COc1ccc(O)cc1)N1CCOCC1.O=C(NCCNCC(O)COc1ccc(O)cc1)N1CCOCC1.O=C(O)/C=C/C(=O)O (stereo not drawn) [XAMOTEROL FUMARATE] = 140
• CC(C)C[C@H](CO)Nc1nc(S[C@@H](C)c2ccccc2)nc2nc(N)sc12 [AZD-8797] = 95

# get_value(readout='Total Cell Count', item= CCCCC[C@H](O)/C=C/[C@H]1[C@H](O)CC(=O)[C@@H]1CCCCCCC(=O)O [ALPROSTADIL] )
162

# get_value(readout='Total Cell Count', item= CC(F)(F)CN1CCOc2c(nn(-c3ccccc3Cl)c2-c2ccc(Cl)cc2)C1=O )
135

# get_value(readout='Total Cell Count', item= Cl.Cl.OCCOCCN1CCN(C(c2ccccc2)c2ccc(Cl)cc2)CC1 (stereo not drawn) [HYDROXYZINE HYDROCHLORIDE] )
155

# get_value(readout='Total Cell Count', item= O=c1nc2[nH]c3ccccc3nc-2c(=O)[nH]1 [ALLOXAZINE] )
114

# get_value(readout='Total Cell Count', item= COc1cc2nc(N3CCN(C(=O)COc4c(OC)cccc4C(C)C)CC3)nc(N)c2cc1OC.Cl.Cl )
193
